pIC50: −log10 of the molar value.
What follows is literature data on pIC50 for Apoptosis regulator Bcl-2 (Homo sapiens, UniProt P10415).

# compound, target, pIC50
records = [
    ("Cc1cccc(-n2nc(C(=O)N(c3ccccc3)c3ccccc3)cc2C)c1C(=O)N1Cc2ccccc2C[C@@H]1CO (atropisomer aR; form 2)", "Apoptosis regulator Bcl-2 (Homo sapiens, UniProt P10415)", 5.21),
    ("O=C(NS(=O)(=O)c1ccc(N[C@H](CCN2CCOCC2)CSc2ccccc2)c(S(=O)(=O)C(F)(F)F)c1)c1ccc(N2CCN(Cc3ccccc3-c3ccc(Cl)cc3)CC2)nn1", "Apoptosis regulator Bcl-2 (Homo sapiens, UniProt P10415)", 6.57),
    ("O=C1N=C2C(=C1NCCCCCc1ccccc1)c1ccc(N3CCSCC3)c3cccc2c13", "Apoptosis regulator Bcl-2 (Homo sapiens, UniProt P10415)", 5.89),
    ("CCCCN(CCCC)c1nccc(-c2ccc(C(=O)NS(=O)(=O)c3ccc4ccc(I)cc4c3)cc2C(=O)N2CCc3ccccc3C2)n1", "Apoptosis regulator Bcl-2 (Homo sapiens, UniProt P10415)", 6.85),
]
